Recorded log10 of MIC, one value per entry.
Tested on: Escherichia coli
Experiment: Antibacterial activity against Escherichia coli MTCC 443 by broth dilution method
Format: functional
Note: values are log10 of MIC expressed in µg/mL.

Examples with their reported log10 of MIC follow.
Cc1[nH]c2ccccc2c1C(c1cccc(Oc2ccccc2)c1)c1oc(CO)cc(=O)c1O (stereo not given); 1.88
Cc1[nH]c2ccccc2c1C(c1ccc2ccccc2c1)c1oc(CO)cc(=O)c1O (stereo not given); 2.18
CCC(c1oc(CO)cc(=O)c1O)c1c(-c2ccccc2)[nH]c2ccccc12 (stereo not given); 0.97

Recorded log10 of MIC of COc1ccc(C(c2oc(CO)cc(=O)c2O)c2c(-c3ccccc3)[nH]c3ccccc23)cc1 (stereo not given) , please.
1.88

Recorded log10 of MIC of O=c1cc(CO)oc(C(c2ccccc2O)c2c(-c3ccccc3)[nH]c3ccccc23)c1O (stereo not given) , please.
1.57

Recorded log10 of MIC of CN[C@@H]1[C@H](O[C@H]2[C@H](O[C@H]3[C@H](O)[C@@H](O)[C@H](N=C(N)N)[C@@H](O)[C@@H]3N=C(N)N)O[C@@H](C)[C@]2(O)C=O)O[C@@H](CO)[C@H](O)[C@H]1O [STREPTOMYCIN] , please.
0.80

Recorded log10 of MIC of COc1ccc(C(c2oc(CO)cc(=O)c2O)c2c(C)[nH]c3ccccc23)cc1 (stereo not given) , please.
2.18

Recorded log10 of MIC of COc1ccc(C(c2oc(CO)cc(=O)c2O)c2c[nH]c3ccccc23)cc1 (stereo not given) , please.
2.18

Recorded log10 of MIC of Cc1[nH]c2ccccc2c1C(c1ccc(Cl)cc1)c1oc(CO)cc(=O)c1O (stereo not given) , please.
1.27

Recorded log10 of MIC of CC1(C)S[C@@H]2[C@H](NC(=O)Cc3ccccc3)C(=O)N2[C@H]1C(=O)O [PENICILLIN G] , please.
1.10

Recorded log10 of MIC of COc1ccc(C(c2oc(CO)cc(=O)c2O)c2c[nH]c3ccc(Br)cc23)cc1 (stereo not given) , please.
1.57

Recorded log10 of MIC of COc1cc(C(c2oc(CO)cc(=O)c2O)c2c(C)[nH]c3ccccc23)ccc1O (stereo not given) , please.
2.18

Recorded log10 of MIC of O=c1cc(CO)oc(C(c2cccc(Oc3ccccc3)c2)c2c[nH]c3ccccc23)c1O (stereo not given) , please.
1.88

Recorded log10 of MIC of COc1ccc(C(c2oc(CO)cc(=O)c2O)c2c[nH]c3ccc(Cl)cc23)cc1 (stereo not given) , please.
0.67

Recorded log10 of MIC of O=c1cc(CO)oc(C(c2ccccc2)c2c[nH]c3ccccc23)c1O (stereo not given) , please.
2.18

###

Tested on: Diutina rugosa
Assay: Antifungal activity against Candida rugosa NCIM 3462 assessed as zone of inhibition at 150 ug by agar well diffusion method
Assay type: functional
Conditions: read-out: IZ
Property: zone of inhibition at 150 µg/disc (mm)
Numbers only here, please. The scale is mm.

COc1ccc(C(c2oc(CO)cc(=O)c2O)c2c(-c3ccccc3)[nH]c3ccccc23)cc1 (stereo not given); 14

Recorded zone of inhibition at 150 µg/disc of COc1ccc(C(c2oc(CO)cc(=O)c2O)c2c[nH]c3ccc(Br)cc23)cc1 (stereo not given) , please.
19

Recorded zone of inhibition at 150 µg/disc of Cc1[nH]c2ccccc2c1C(c1cccc(Oc2ccccc2)c1)c1oc(CO)cc(=O)c1O (stereo not given) , please.
16

Recorded zone of inhibition at 150 µg/disc of CCC(c1oc(CO)cc(=O)c1O)c1c(-c2ccccc2)[nH]c2ccccc12 (stereo not given) , please.
0

Recorded zone of inhibition at 150 µg/disc of COc1ccc(C(c2oc(CO)cc(=O)c2O)c2c[nH]c3ccccc23)cc1 (stereo not given) , please.
9

Origin of measurements: ChEMBL document CHEMBL1287779
